Recorded measurements of Pigweed plant response rating (0 to 100 scale), one per entry
Tested on: pigweed (Amaranthus retroflexus)
METHOD DESCRIPTION: Test A postemergence, visual plant response rating
Format: in vivo
CONDITION SET: 500 g ai/ha, postemergence; 0 is no effect, 100 is complete control
RESULT TYPE: Pigweed plant response rating (0 to 100 scale)

[[record]]
compound = "CCc1cccc(C(=NOC)c2c(O)c(C)nn(C)c2=O)c1 [Compound 36]"
observed_measurement = 70

[[record]]
compound = "C#CCO/N=C(/c1c(O)c(C)nn(C)c1=O)c1cc(Br)cc2ccccc12 [Compound 112]"
observed_measurement = 100

[[record]]
compound = "CON=C(c1ccc(C)o1)c1c(O)c(C)nn(C)c1=O [Compound 141]"
observed_measurement = 0

[[record]]
compound = "CO/N=C(\\c1cccc(C)c1)c1c(O)c(C)nn(C)c1=O [Compound 13]"
observed_measurement = 90

[[record]]
compound = "CON=C(c1c(O)c(C)nn(C)c1=O)c1ccc(Cl)c2ccccc12 [Compound 40]"
observed_measurement = 40

[[record]]
compound = "CO/N=C(/c1cscc1C)c1c(O)c(C)nn(C)c1=O [Compound 140]"
observed_measurement = 90

[[record]]
compound = "CO/N=C(/c1ccccc1C(C)C)c1c(O)c(C)nn(C)c1=O [Compound 93]"
observed_measurement = 80

[[record]]
compound = "CO/N=C(\\c1c(O)c(C)nn(C)c1=O)c1cccc2ccccc12 [Compound 26]"
observed_measurement = 90

[[record]]
compound = "C#CCO/N=C(/c1c(O)c(C)nn(C)c1=O)c1ccc(F)c2ccccc12 [Compound 109]"
observed_measurement = 100


Source of measurements: patent US20210045385A1
